Test: reversal of MRP1-mediated doxorubicin resistance, pilot screen, H69AR cells, doxorubicin co-treatment (AID 601)
Details: H69AR cells + 2 uM doxorubicin, CellTiter-Glo, 72 h; at 10 µM; stronger effect = higher value
MEASURED QUANTITY: differential viability (reversal) (%)
State the answer as a number, implicitly in %.

Below: 5 molecules and their reported differential viability (reversal).
MOLECULE	VALUE UNITS	differential viability (reversal)
Cc1oc2cc(O)ccc2c(=O)c1-c1cnn(-c2ccccc2)c1	%	-1.5
Cc1ccc(S(=O)(=O)C2(C(=O)Nc3cccnc3)CC2)cc1	%	3.19
Cc1[nH]c(=O)[nH]c(=O)c1S(=O)(=O)N1CCCC(C(=O)NCc2ccco2)C1 (configuration not stated)	%	-1.73
COc1ccc(CCNc2nc(N3CCOCC3)nc(N3CCOCC3)n2)cc1OC	%	2.03
O=C1OCCC1Sc1ncnc2sc3c(c12)CCC3 (configuration not stated)	%	11.8

Ask: Sample COc1cc(C2c3c(n[nH]c3C)C(=O)N2c2ccc(Br)cc2)ccc1O (configuration not stated) — what was its differential viability (reversal)?
Result: 5.68

Ask: Another molecule: O=C(Cn1nnc2ccccc2c1=O)NC1CCCc2ccccc21 (configuration not stated)
Result: 7.25

* * *

Assay: SK-BR-3 cell growth inhibitors, pilot screen, 24 h, human (AID 572);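 further: compound exposure lasted between 18 and 24 h rather than exactly 24 h; 100% = carrier-treated control wells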
Details: SK-BR-3 viability, CellTiter-Glo luminescence, at 10 µM, stronger effect = lower value
MEASURED QUANTITY: viability (%)
State the answer as a number, implicitly in %.

MOLECULE	viability, %
COc1ccc(-c2nnc3sc(-c4c(OC)cccc4OC)nn23)cc1	105
Cn1c(Cc2csc(N)n2)nnc1SCC(=O)NCc1ccccc1	93
CC(=O)c1c(C)nc(C)nc1NC(=O)Cc1ccccc1	106
O=C(c1ccc2c(c1)c(=O)oc1ccccc12)N1CCCCC1	109
CCC(=O)N1CCc2cc(Br)cc(S(=O)(=O)CCC(=O)NCC3CCCO3)c21 (configuration not stated)	118
O=c1[nH]c(SCc2cc(=O)n3ccccc3n2)nc2c1CCC2	101

Okay, now this molecule:
Ask: Sample COCCN1CCN(c2c(C)c(C)nc3cc(-c4cccc(OC)c4)nn23)CC1 — what was its viability?
Result: 100

* * *

Assay: growth suppression of yeast trafficking mutant, preliminary HTS, modulators of trafficking downstream of Golgi apparatus project, 1536-format plate, OD 615 nm (AID 637)
Conditions: yeast transport mutant growth, absorbance 615 nm, 18 h; stronger effect = higher value
# inhibition per record follows
State the answer as a number, implicitly in %.

Below: 5 molecules and their reported inhibition.
MOLECULE	VALUE UNITS	inhibition
Cc1ccc(NC(=O)C2CCCN2S(=O)(=O)c2cccc3cccnc23)cc1F (centres undefined)	%	3.93
CCNc1nc(N2CCCCC2)nc(-n2nnc(C(=O)OCC)c2C)n1	%	4.75
CCN(CC)C(=O)CSc1nc2ccc(NC(=O)CSc3nccn3C)cc2s1	%	-1.45
COCCCNC(=O)C1CCCN(C(=O)Nc2ccc(OC)cc2)C1 (centres undefined)	%	1.83
Cc1cc2c(cc1C)C(=O)NC(C)(C)C2	%	-1.15

Ask: Sample Cc1ccccc1NC(=O)C1CCN(c2cnccn2)CC1 — what was its inhibition?
Result: -5.48

Ask: Another molecule: Cc1cccc(-c2c3c(=O)n(C)c(=O)n(C)c3cn2-c2ccc(O)cc2)c1
Result: -2.38

Ask: Another molecule: O=C(CCS(=O)(=O)c1cccc2nonc12)Nc1cccc2c1CCCC2
Result: -3.65

Ask: Another molecule: CCOc1ccc(-n2cc(C(=O)Nc3cccc(C)n3)c3cc(OC)c(OC)cc3c2=O)cc1
Result: 4.43

* * *

Experiment: reducers of endogenous Her2 protein level, primary screen, SKBR3 breast tumor cells, AlphaScreen, ATP viability (AID 461);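 on viability: percent of carrier control wells set as 100% viability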
Conditions: 18-24 h, measured here: SKBR3 viability, ATP luminescence, at 10 µM
// classify: if (viability < 90%) yes (1) else no (0)

Please review the entries below; each comes with its answer.
COMPOUND	GROUP
Cc1cccn2cc(-c3ccccc3)nc12	yes (1)
O=C(O)Cn1cc(C(=O)c2ccco2)c2ccccc21	no (0)
Cc1nnc(SCc2cnc(-c3ccccc3)o2)[nH]c1=O	no (0)

Consider the additional compound presented here.
Ask: # check: viability < 90% for COCCCNC(=O)C1CCCN(C(=O)Nc2ccc(OC)cc2)C1 (stereo not drawn)
Result: no (0)

* * *

Test: HUVEC growth inhibition – cell-based, human, primary screen (AID 575);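 further: 100% = median of untreated cell wells with 0.1% DMSO on each plate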
Conditions: HUVEC proliferation, CellTiter-Glo luminescence, 72 h; at 10 µM; stronger effect = lower value
Activity calls are given as the source filed them.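 How the source made its calls: active means viability at or below 30% in both replicate assays; inconclusive means viability at or below 30% in just one of the two assays; inactive means the rest.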
MEASURED QUANTITY: viability

COMPOUND	ASSAY RESULT
CC(C(=O)NCCCN1CCOCC1)n1cccc1C(=O)c1ccccc1 (centres undefined)	97.4% (inactive)

Ask: Sample CCOC(=O)c1c(-c2ccc(C)o2)csc1NC(=O)COC(=O)c1cccs1 — what was its viability?
Result: 69.3% (inactive)

Ask: Another compound: Cc1cccc(N2CCN(C(=O)CCn3c(=S)[nH]c4cc5c(cc4c3=O)OCO5)CC2C)c1 (centres undefined)
Result: 38.2% (inactive)

Ask: Another compound: CC(=O)N1CCC2(CC1)CC(=O)c1cc(OCC(=O)NCc3ccco3)ccc1O2
Result: 106% (inactive)

* * *

Molecular target: Receptor tyrosine-protein kinase erbB-2 (Homo sapiens) (UniProt P04626)
Sequence (P04626 whole entry, looked up): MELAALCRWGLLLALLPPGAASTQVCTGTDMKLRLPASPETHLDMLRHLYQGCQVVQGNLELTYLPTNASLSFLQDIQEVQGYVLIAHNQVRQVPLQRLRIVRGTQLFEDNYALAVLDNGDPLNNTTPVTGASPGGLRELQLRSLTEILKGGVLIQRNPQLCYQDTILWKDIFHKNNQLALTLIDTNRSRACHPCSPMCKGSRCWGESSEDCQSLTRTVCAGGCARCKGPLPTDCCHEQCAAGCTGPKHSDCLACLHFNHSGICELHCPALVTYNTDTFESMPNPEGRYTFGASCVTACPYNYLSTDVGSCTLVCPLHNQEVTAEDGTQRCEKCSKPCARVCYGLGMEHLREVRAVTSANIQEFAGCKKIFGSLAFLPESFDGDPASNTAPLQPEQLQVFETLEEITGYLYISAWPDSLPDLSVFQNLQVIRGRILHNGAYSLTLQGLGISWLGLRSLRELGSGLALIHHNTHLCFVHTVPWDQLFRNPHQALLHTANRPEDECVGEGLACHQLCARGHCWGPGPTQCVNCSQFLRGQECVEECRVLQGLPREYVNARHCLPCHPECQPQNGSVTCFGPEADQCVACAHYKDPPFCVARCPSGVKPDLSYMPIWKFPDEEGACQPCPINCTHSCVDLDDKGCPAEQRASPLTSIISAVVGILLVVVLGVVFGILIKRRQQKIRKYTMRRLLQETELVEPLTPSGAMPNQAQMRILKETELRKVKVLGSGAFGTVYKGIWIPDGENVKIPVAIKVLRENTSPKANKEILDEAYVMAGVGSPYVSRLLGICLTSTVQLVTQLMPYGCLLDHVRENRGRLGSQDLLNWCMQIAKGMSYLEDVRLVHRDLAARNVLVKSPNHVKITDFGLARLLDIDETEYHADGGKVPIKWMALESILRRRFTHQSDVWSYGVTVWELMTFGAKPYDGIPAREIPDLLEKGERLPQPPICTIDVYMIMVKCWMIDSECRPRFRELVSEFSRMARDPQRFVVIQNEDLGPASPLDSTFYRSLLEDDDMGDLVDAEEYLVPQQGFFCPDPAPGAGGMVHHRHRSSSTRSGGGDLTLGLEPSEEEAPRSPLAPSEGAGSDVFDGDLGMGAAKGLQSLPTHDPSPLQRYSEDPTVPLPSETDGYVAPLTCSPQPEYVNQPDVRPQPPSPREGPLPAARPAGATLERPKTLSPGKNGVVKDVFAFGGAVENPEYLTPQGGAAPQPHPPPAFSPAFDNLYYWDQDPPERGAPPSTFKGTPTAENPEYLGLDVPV
Assay: reducers of endogenous Her2 protein level, primary screen, SKBR3 breast tumor cells, AlphaScreen, ATP viability (AID 461);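 on Her2 level: lower value means less Her2 protein in the cells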;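 on viability: percent of carrier control wells set as 100% viability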
Settings: 18-24 h, at 10 µM, stronger effect = lower value
// classify: if (Her2 level < 90%) True else False

Please review the entries below; each comes with its answer.
COMPOUND	GROUP
Cc1nc(NS(=O)(=O)c2ccccc2)sc1NC(=O)OC(C)C	False
COc1cccc(-c2noc(-c3cccs3)n2)c1	True
CSc1ccc(S(=O)(=O)Nc2cccc(F)c2)cc1	True

Ask: # check: Her2 level < 90% for Cc1ccc(NCC(O)C(O)C(O)CO)cc1C (stereo not given)
Result: False

Ask: Another compound: Cc1cc(C)c(-c2cc(C(=O)Nc3c(C)n(C)n(-c4ccccc4)c3=O)[nH]n2)c(O)c1
Result: False

Ask: Another compound: COC(=O)c1ccc(Cl)c(NC(C)=O)c1
Result: False

Ask: Another compound: Cc1ccccc1N(C)S(=O)(=O)c1ccc2[nH]cc(C(=O)NCC3CCCO3)c(=O)c2c1 (stereo not given)
Result: True

Ask: Another compound: Cc1c(C(=O)NCc2ccccc2)oc2c1C(=O)CCC2
Result: False

Ask: Another compound: Cn1c(=O)c2c([nH]c(=O)n2C)n(C)c1=O
Result: True

Ask: Another compound: O=C(Nc1ccc(Br)cc1F)c1sccc1-n1cccc1
Result: True

Ask: Another compound: Cc1cnn(Cc2ccccc2)c1N
Result: True

Ask: Another compound: CCc1cc2c(=O)n(C(C)C(=O)OC3CCCCC3)cnc2s1 (stereo not given)
Result: False

* * *

Experiment: reversal of MRP1-mediated doxorubicin resistance, pilot screen, H69AR cells, doxorubicin co-treatment (AID 601)
Settings: H69AR cells + 2 uM doxorubicin, CellTiter-Glo, 72 h; at 10 µM; stronger effect = higher value
MEASURED QUANTITY: differential viability (reversal) (%)
State the answer as a number, implicitly in %.

Ask: Sample CCc1ccc(NS(=O)(=O)c2cccs2)cc1 — what was its differential viability (reversal)?
Result: 2

* * *

Experiment: growth suppression of yeast trafficking mutant, preliminary HTS, modulators of trafficking downstream of Golgi apparatus project, 1536-format plate, OD 615 nm (AID 637)
Conditions: yeast transport mutant growth, absorbance 615 nm, 18 h; stronger effect = higher value
MEASURED QUANTITY: inhibition (%)
State the answer as a number, implicitly in %.

Below: 8 compounds and their reported inhibition.
COMPOUND	VALUE UNITS	inhibition
Cc1ccc(NS(=O)(=O)c2cn(C)cn2)cc1	%	2.36
Cc1cccc(-c2nnc(SCC#N)n2-c2cccc(Cl)c2)c1	%	0
CCOc1ccc(OCC)c(NC(=O)CN2CCN(C(=O)c3ccco3)CC2)c1	%	-7.3
COc1ccc(N2CCN(C(=O)CSc3nnc4n3C(C)(C)Cc3ccccc3-4)CC2)cc1	%	-1.61
CCc1nnc(NC(=O)C2CCCN2S(=O)(=O)c2ccc(C)cc2)s1 (stereo unspecified)	%	6.07
CCOC(=O)c1cnc(-n2nc(C)cc2C)nc1Nc1cccc(C(C)=O)c1	%	-4.35
COc1ccc(C(=O)NCCn2ccc3ccccc32)c(OC)c1	%	1.11
Cc1nc2nc(SCC(=O)NCc3ccco3)nn2c(C)c1Cc1ccccc1	%	-3

Ask: Sample CCCC(NC(=O)c1ccccc1)c1nc2ccccc2n1Cc1ccc(C(=O)OC)o1 (stereo unspecified) — what was its inhibition?
Result: -9.17

Ask: Another compound: CCOC(=O)N1CCN(C(=O)c2n[nH]c(=O)c3ccccc23)CC1
Result: 19

Ask: Another compound: Brc1ccc(-c2cn3cccnc3n2)cc1
Result: 0.97
